Tested on: Maillard reaction (lysozyme / fructose, dimer formation)
Assay: Maillard reaction-inhibiting effects (lysozyme dimer formation with fructose, SDS-PAGE densitometry)
Format: biochemical
Settings: test compound concentration 1 mM; 10 mg/mL lysozyme, 200 mM fructose, pH 7.4, 37° C., 4 days; dimer formation inhibition rate
endpointName: Maillard reaction-inhibiting activity (%)
Reply with just the number (in %).

Worked cases, Maillard reaction-inhibiting activity (%) given:
>  <compound>
CCCn1c(CC[C@H](N)C(=O)NO)nc2cc(Cl)c(Cl)cc21

>  <value>
107

$$$$
>  <compound>
CC(C)(C)c1ccc(COc2ccc(C[C@H](N)C(=O)NO)cc2)cc1

>  <value>
99

$$$$
>  <compound>
Cc1ccc(CN(CCC[C@H](N)C(=O)NO)Cc2ccc(C)cc2)cc1

>  <value>
100

$$$$
>  <compound>
Cc1ccc(C(=O)Nc2ccc(C[C@H](N)C(=O)NO)cc2)cc1

>  <value>
80

$$$$
>  <compound>
N[C@@H](CCCNC1CCCCC1)C(=O)NO

>  <value>
32

$$$$
>  <compound>
N[C@@H](CCCNC(=O)Cc1ccc([N+](=O)[O-])cc1)C(=O)NO

>  <value>
71

$$$$
>  <compound>
N[C@@H](CCC(=O)NCc1ccccn1)C(=O)NO

>  <value>
13

$$$$
>  <compound>
N[C@@H](Cc1ccc(OCc2ccc([N+](=O)[O-])cc2)cc1)C(=O)NO

>  <value>
102

$$$$

Query: What value of measured Maillard reaction-inhibiting activity (%) is listed for `N[C@@H](Cc1cn(Cc2c(F)c(F)c(F)c(F)c2F)c2ccccc12)C(=O)NO` ?
Response: 94

Query: Name the reported Maillard reaction-inhibiting activity (%) value associated with the compound `N[C@@H](CCc1nc2ccccc2n1C1CCCCC1)C(=O)NO`
Response: 100
